- Target or test system: T1, calreticulin as used in the gel mobility shift assays of Examples 7 and 15 (Homo sapiens (Human), UniProt P27797 18-417)
- T1 construct: Could be m1 or m2
- T1 sequence: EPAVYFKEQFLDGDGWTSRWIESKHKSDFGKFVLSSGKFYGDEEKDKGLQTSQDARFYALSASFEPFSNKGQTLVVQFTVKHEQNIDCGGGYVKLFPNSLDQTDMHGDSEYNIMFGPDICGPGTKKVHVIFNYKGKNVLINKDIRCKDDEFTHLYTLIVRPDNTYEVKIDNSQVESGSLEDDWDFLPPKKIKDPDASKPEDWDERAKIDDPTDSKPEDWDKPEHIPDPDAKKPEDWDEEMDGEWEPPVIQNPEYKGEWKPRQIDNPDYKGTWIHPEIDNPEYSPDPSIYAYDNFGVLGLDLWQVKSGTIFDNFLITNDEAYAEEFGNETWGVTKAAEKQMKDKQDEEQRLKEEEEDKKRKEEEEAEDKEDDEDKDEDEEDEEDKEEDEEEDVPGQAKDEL
- Protocol details: gel mobility shift, PhosphorImager; reversal of calreticulin inhibition of RAR/RXR binding to its DNA response element; competitor RAR/RXR
Measured % Reversal of individual entries
Field: numeric (%). Do not append units.

A selection of reference data follows.
{"Binder": "KGFFKR (also called 409) [KGFFKR peptide]", "Observed result": 100}
{"Binder": "GLGFFKR [GLGFFKR peptide]", "Observed result": 45}
{"Binder": "KLGFFKG [KLGFFKG peptide]", "Observed result": 22}
{"Binder": "KLGRFKR [KLGRFKR peptide]", "Observed result": 24}
{"Binder": "KLGFFGR [KLGFFGR peptide]", "Observed result": 65}
{"Binder": "KLGFFKR (Used free in solution and immobilised on sepharose; also called KLGFFKR-sepharose) [KLGFFKR synthetic peptide]", "Observed result": 100}

Item KLRFGFK (Control) [KLRFGFK scrambled peptide] : provide % Reversal
34

Item KLGFRKR [KLGFRKR peptide] : provide % Reversal
20

Item KLDFFKR [KLDFFKR peptide] : provide % Reversal
73
